I'd be grateful if you could share measured Anti-CD28 Fab (SEQ ID NOs: 696, 697) signal for these entries.
- Tested system: T1, Anti-CD28 Fab (SEQ ID NOs: 696, 697)
- T1 construct: In the phage ELISA the Fab was biotinylated and captured on neutravidin coated plates
- T1 sequence (VH, as listed by the source, chain 1 of 2): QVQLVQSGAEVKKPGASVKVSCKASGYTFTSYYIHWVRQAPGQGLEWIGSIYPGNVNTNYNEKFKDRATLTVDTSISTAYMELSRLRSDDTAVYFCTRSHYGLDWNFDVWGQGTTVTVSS
- T1 sequence (VL, as listed by the source, chain 2 of 2): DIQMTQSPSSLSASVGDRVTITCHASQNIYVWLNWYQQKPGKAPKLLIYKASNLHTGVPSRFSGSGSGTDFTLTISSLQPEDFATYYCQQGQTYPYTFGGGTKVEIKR
- Test name: phage binding ELISA; biotinylated Fab on neutravidin plate, anti-M13 HRP detection
Form: value (number only, do not type unit).

Please fill in: Anti-CD28 Fab (SEQ ID NOs: 696, 697) signal reported for SCAAGASYSWPLCF (tested as crude phage supernatant) [Phage-1672] = 0.95

Note to self: Anti-CD28 Fab (SEQ ID NOs: 696, 697) signal recorded for MCTAGFSFNWPECL (tested as crude phage supernatant) [Phage-1661] was 1.05

get_value(item= TCSAGASYSWPYCM (tested as crude phage supernatant) [Phage-1664] , readout=Anti-CD28 Fab (SEQ ID NOs: 696, 697) signal) returns 1

Recorded result, SCTAVFSYALSPCF (tested as crude phage supernatant) [Phage-1666] , Anti-CD28 Fab (SEQ ID NOs: 696, 697) signal: 0.99

Record WCSEVFSYPWPACL (tested as crude phage supernatant) [Phage-1665] , field Anti-CD28 Fab (SEQ ID NOs: 696, 697) signal: 0.99

Data point: SCAAVFSFNWPECF (tested as crude phage supernatant) [Phage-1663] ; Anti-CD28 Fab (SEQ ID NOs: 696, 697) signal = 1.01

Lab note: measured Anti-CD28 Fab (SEQ ID NOs: 696, 697) signal of MCAAGAMYNWPLCL (tested as crude phage supernatant) [Phage-1671] was 0.95

Value of measured Anti-CD28 Fab (SEQ ID NOs: 696, 697) signal for the entry TCSAGATYKWPTCL (tested as crude phage supernatant) [Phage-1669] : 0.97

Consider LCDQFFHYNWPACL (tested as crude phage supernatant) [Phage-1662] . Its measured Anti-CD28 Fab (SEQ ID NOs: 696, 697) signal is 1.04

Recorded Anti-CD28 Fab (SEQ ID NOs: 696, 697) signal (binder VCAAGAAYPWPACL (tested as crude phage supernatant) [Phage-1673] ): 0.93

Quick note, Anti-CD28 Fab (SEQ ID NOs: 696, 697) signal for TCSAGAHYPWPMCL (tested as crude phage supernatant) [Phage-1674] landed at 0.93

binder PCAAGAHYVWPVCF (tested as crude phage supernatant) [Phage-1668] , Anti-CD28 Fab (SEQ ID NOs: 696, 697) signal observed: 0.97

The recorded Anti-CD28 Fab (SEQ ID NOs: 696, 697) signal for SCAAGAHWSWPACL (tested as crude phage supernatant) [Phage-1670] is 0.97

For LCAAVFAYTWPMCF (tested as crude phage supernatant) [Phage-1667] the binder record lists Anti-CD28 Fab (SEQ ID NOs: 696, 697) signal as 0.98

Reference for the values: patent US20260242478A1
